biological target: NOR1 (Homo sapiens, UniProt Q92570); construct: NOR1 (isoform alpha; uniprot entry: hNOR1–Q92570-1, residues 393–626); expressed in transfected cells; host or cells: HEK293T; assay: Gal4-NOR1 hybrid reporter gene assay in HEK293T cells; format: cell-based
PROPERTY_MEASURED: IC50

Please give measured IC50 of the following entry: Cc1cnc(NC(=O)C2=C(O)c3ccccc3S(=O)(=O)N2C)s1 84 µM

====

Molecular target: NOR1 (Homo sapiens)
Construct: NOR1 (isoform alpha; uniprot entry: hNOR1–Q92570-1, residues 393–626); expressed in transfected cells; host or cells: HEK293T
Sequence (Q92570 393-626): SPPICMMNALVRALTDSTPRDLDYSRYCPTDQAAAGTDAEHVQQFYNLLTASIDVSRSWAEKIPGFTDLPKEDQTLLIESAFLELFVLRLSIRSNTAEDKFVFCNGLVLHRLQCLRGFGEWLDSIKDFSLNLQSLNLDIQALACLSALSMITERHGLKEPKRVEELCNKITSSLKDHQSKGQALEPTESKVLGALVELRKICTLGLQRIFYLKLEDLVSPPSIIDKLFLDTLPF
Test: Gal4-NOR1 hybrid reporter gene assay in HEK293T cells
Format: cell-based
Details: 10 µM; primary screen; n ≥ 2; ^# not significant vs VP16 control
PROPERTY_MEASURED: Nor1 activity 10μM (mean fold activation) (fold)
Please reply with the bare figure in fold and do not write the unit itself.

Please give measured Nor1 activity 10μM (mean fold activation) of the following entry: O=C(O)c1ccccc1O 1.01

Please give measured Nor1 activity 10μM (mean fold activation) of the following entry: CN1C(C(=O)Nc2ccccn2)=C(O)c2sc(Cl)cc2S1(=O)=O 0.92

Please give measured Nor1 activity 10μM (mean fold activation) of the following entry: Nc1c(CC(=O)O)cccc1C(=O)c1ccc(Br)cc1 1.26

Please give measured Nor1 activity 10μM (mean fold activation) of the following entry: CC(C(=O)O)c1cccc(C(=O)c2ccccc2)c1 (stereo not shown) 1.10
